- TARGET OR TEST SYSTEM: EGFR (d746-750) (Homo sapiens (Human), UniProt P00533, DEL746-750)
- Sequence (P00533 other isoform, or with tags, fused parts or gaps del 1-694/del 746-750 limits assumed): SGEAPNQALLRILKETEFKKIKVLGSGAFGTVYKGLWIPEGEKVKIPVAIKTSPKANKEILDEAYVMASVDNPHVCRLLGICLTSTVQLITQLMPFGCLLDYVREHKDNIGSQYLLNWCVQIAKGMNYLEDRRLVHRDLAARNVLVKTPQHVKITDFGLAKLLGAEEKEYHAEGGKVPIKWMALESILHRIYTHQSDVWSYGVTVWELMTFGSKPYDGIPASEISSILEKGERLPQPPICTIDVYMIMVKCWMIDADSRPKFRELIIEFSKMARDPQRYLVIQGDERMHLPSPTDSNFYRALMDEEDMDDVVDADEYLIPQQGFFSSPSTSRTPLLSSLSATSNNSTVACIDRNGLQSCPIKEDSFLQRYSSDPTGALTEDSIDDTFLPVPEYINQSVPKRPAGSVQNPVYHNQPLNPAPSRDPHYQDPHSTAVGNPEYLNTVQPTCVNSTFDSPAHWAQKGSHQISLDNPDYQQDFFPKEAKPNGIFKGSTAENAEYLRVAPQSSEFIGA
- EXPERIMENT: Biochemical EGFR inhibition assay, EGFR (d746-750)
- CONDITION SUMMARY: Caliper mobility shift; 1.0 mM ATP or ATP Km; read-out: Enz EGFR_Exon19-del746-750 IC50
READOUT TYPE: IC50 (nM)

SMILES INPUT: COc1cc2ncnc(-c3cn(C)nc3-c3ccccc3)c2cc1NC(=O)c1ccnn1C(F)(F)F
VALUE REPORTED: 1.3
//
SMILES INPUT: CCOc1cc2ncnc(-c3cn(C)nc3-c3ccccc3)c2cc1OC(=O)N1CCN(C)C[C@@H]1C
VALUE REPORTED: 1.1
//
SMILES INPUT: CCOc1cc2ncnc(-c3cn(C)nc3-c3ccccc3)c2cc1OC1CCN(C)CC1
VALUE REPORTED: 6.4

====

- TARGET OR TEST SYSTEM: EGFR (d746-750) (Homo sapiens (Human), UniProt P00533, DEL746-750)
- EXPERIMENT: Biochemical EGFR inhibition assay, EGFR (d746-750)
- CONDITION SUMMARY: Caliper mobility shift; 1.0 mM ATP or ATP Km; read-out: Enz EGFR_Exon19-del746-750 IC50
- Experimental: Reactions proceeded until between 10% to 20% total peptides were phosphorylated at room temperature (25° C.) and were terminated with 35 mM 2,2′,2″,2″-(ethane-1,2-diyldinitrilo)tetraacetic acid (EDTA). Product was detected using the Caliper mobility shift detection method where the phosphorylated peptide (product) and substrate were electrophoretically separated and measured. Percent activity was plotted against log concentration of compound and points to generate an apparent IC50.
pIC50: −log10 of the molar value.
# pIC50 per entry

COMPOUND: CCC(=O)Nc1cc2c(-c3cn(C)nc3-c3ccccc3)ncnc2cc1-n1ccc(C)n1 [Example 450]
TARGET OR TEST SYSTEM: EGFR (d746-750) (Homo sapiens (Human), UniProt P00533, DEL746-750)
pIC50: 9.15
//
COMPOUND: COc1cc2ncnc(-c3cn(C)nc3-c3ccccc3)c2nc1O[C@H](C)c1ncsc1C (single isomer, unassigned) [Example 53]
TARGET OR TEST SYSTEM: EGFR (d746-750) (Homo sapiens (Human), UniProt P00533, DEL746-750)
pIC50: 8.96
//
COMPOUND: COc1cc2ncnc(-c3cn(C)nc3-c3ccccc3)c2cc1NC(=O)c1cncc(F)c1 [Example 327]
TARGET OR TEST SYSTEM: EGFR (d746-750) (Homo sapiens (Human), UniProt P00533, DEL746-750)
pIC50: 8.29
//
COMPOUND: [2H]C([2H])([2H])n1cc(-c2ncnc3cc(OC)c(NC(=O)C4(C(F)(F)F)CC4)nc23)c(-c2ccccc2)n1 [Example 320]
TARGET OR TEST SYSTEM: EGFR (d746-750) (Homo sapiens (Human), UniProt P00533, DEL746-750)
pIC50: 9.22
//
COMPOUND: COc1cc2ncnc(-c3cn(C)nc3-c3ccccc3)c2cc1NC(=O)C1(C)CCC1 [Example 348]
TARGET OR TEST SYSTEM: EGFR (d746-750) (Homo sapiens (Human), UniProt P00533, DEL746-750)
pIC50: 8.77
//
COMPOUND: COc1cc2ncnc(-c3cn(C)nc3-c3ccccc3)c2cc1NC(=O)C(C)(C)F [Example 350]
TARGET OR TEST SYSTEM: EGFR (d746-750) (Homo sapiens (Human), UniProt P00533, DEL746-750)
pIC50: 8.82
//
COMPOUND: COc1cc2ncnc(-c3cn(C)nc3-c3ccccc3F)c2cc1NC(=O)[C@]12COC[C@H]1C2 (single isomer, unassigned) [Example 241]
TARGET OR TEST SYSTEM: EGFR (d746-750) (Homo sapiens (Human), UniProt P00533, DEL746-750)
pIC50: 8.82
//
COMPOUND: COc1cc2ncnc(-c3cn(C)nc3-c3ccccc3)c2cc1N1CCC[C@@H](O)C1 [Example 165]
TARGET OR TEST SYSTEM: EGFR (d746-750) (Homo sapiens (Human), UniProt P00533, DEL746-750)
pIC50: 8.77
//
COMPOUND: COc1cc2ncnc(-c3cn(C)nc3-c3ccccc3)c2cc1NC(=O)c1ccnnc1 [Example 328]
TARGET OR TEST SYSTEM: EGFR (d746-750) (Homo sapiens (Human), UniProt P00533, DEL746-750)
pIC50: 8.96
